test system: Abeta total; assay: Cellular αLisa assay in SKNBE2 cells, Abeta total; type: cell-based, human; conditions: Homo sapiens, SKNBE2, 18 h, incubated for 18 hours, read-out: Cellular αLisa assay in SKNBE2 cells Abetatotal pIC50 (converted)
quantity: IC50 (nM)

* C[C@]1(c2cccc(NC(=O)c3ccc(C#N)cn3)c2)N=C(N)CO[C@]1(F)C(F)(F)F [Compound 240] | 10.2
* COc1cncc(-c2cccc(C3(C)N=C(N)COC3C(F)(F)F)c2)c1 (stereo not shown) [Compound 108] | 120
* C[C@]1(c2cc(NC(=O)c3ncc(C#N)cc3Cl)ccc2F)N=C(N)CO[C@H]1C(F)(F)F [Compound 308] | 6.17
* C[C@@]1(c2cccc(-c3cncnc3)c2)COC2(CC2)C(N)=N1 [Compound 74] | 204
* CCC1(c2cc(NC(=O)c3ncc(C#N)cc3Cl)ccc2F)N=C(N)COC1C(F)(F)F (stereo not shown) [Compound 284] | 17.4
* COc1cncc(-c2cccc(C3(C(F)(F)F)COCC(N)=N3)c2)c1 (racemic) [Compound 152] | 3160
* C[C@]1(c2cc(-c3cncc(F)c3)c(F)cc2F)N=C(N)CO[C@@H]1C(F)(F)F [Compound 316] | 631
* COc1cncc(-c2cccc(C3(C)COC4(CC4)C(N)=N3)c2)c1 (racemic) [Compound 16] | 355
* CC1(c2cccc(-c3cncc(C#N)c3)c2)N=C(N)COC1C(F)(F)F (stereo not shown) [Compound 171] | 129
* NC1=N[C@@](c2cccc(-c3cncc(F)c3)c2)(C2CC2)[C@H](C(F)(F)F)OC1 [Compound 270] | 47.9
* CC1(c2cc(-c3cncnc3)c(F)cc2F)N=C(N)COC1F (stereo not shown) [Compound 84] | 4470
* NC1=N[C@@](c2cccc(NC(=O)c3cnc(OCC(F)(F)F)cn3)c2)(C2CC2)[C@@H](F)OC1 [Compound 275] | 56.2
* COc1cncc(-c2cccc(C3(C)N=C(N)COC3F)c2)c1 (stereo not shown) [Compound 100] | 339
* CC1(c2cc(NC(=O)c3ncc(Cl)cc3F)ccc2F)N=C(N)COC1F (stereo not shown) [Compound 77] | 11.7
* N#Cc1ccc(C(=O)Nc2cccc([C@@]3(C4CC4)N=C(N)CO[C@@]3(F)C(F)(F)F)c2)nc1 [Compound 199] | 17
* C[C@]1(c2cc(NC(=O)c3ncc(Cl)cc3F)ccc2F)N=C(N)CO[C@H]1C(F)(F)F [Compound 260] | 6.46
* COc1cnc(C(=O)Nc2cccc(C3(C)N=C(N)COC3F)c2)cn1 (stereo not shown) [Compound 80] | 53.7
* COc1cncc(-c2ccc(F)c(C3(C)N=C(N)COC3C(F)(F)F)c2)c1 (stereo not shown) [Compound 105] | 224
* NC1=N[C@@](c2cccc(NC(=O)c3ncc(Cl)cc3Cl)c2)(C2CC2)[C@H](F)OC1 [Compound 276] | 41.7
* NC1=N[C@@](c2cc(-c3cncnc3)ccc2F)(C2CC2)[C@](F)(C(F)(F)F)OC1 [Compound 312] | 2820
* COc1ccc(C(=O)Nc2ccc(F)c([C@@]3(C4CC4)N=C(N)CO[C@H]3C(F)(F)F)c2)nc1 [Compound 231] | 11.7
* C[C@]1(c2cccc(NC(=O)c3ncc(C#N)cc3Cl)c2)N=C(N)CO[C@]1(F)C(F)(F)F [Compound 245] | 5.89
* CC1(c2cccc(NC(=O)c3ncccc3F)c2)COCC(N)=N1 (racemic) [Compound 6] | 457
* C[C@]1(c2cc(-c3cncnc3)c(F)cc2F)N=C(N)CO[C@@]1(F)C(F)(F)F [Compound 211] | 1740
* COc1cnc(C(=O)Nc2ccc(F)c([C@@]3(C)N=C(N)CO[C@H]3C(F)(F)F)c2)cn1 [Compound 166] | 12.3

---

We begin with a simple list: items and their reported IC50.
Tested on: Abeta total
Experiment: Cellular αLisa assay in SKNBE2 cells, Abeta total
Type: cell-based, human
Conditions: Homo sapiens, SKNBE2, 18 h, incubated for 18 hours, read-out: Cellular αLisa assay in SKNBE2 cells Abetatotal pIC50 (converted)
Experimental: Cellular αLisa Assay in SKNBE2 Cells In two αLisa assays the levels of Abeta total and Abeta 1-42 produced and secreted into the medium of human neuroblastoma SKNBE2 cells are quantified. […] Abeta total and Abeta 1-42 are measured by sandwich αLisa. αLisa is a sandwich assay using biotinylated antibody AbN/25 attached to streptavidin coated beads and antibody Ab4G8 or cAb42/26 conjugated acceptor beads for the detection of Abeta total and Abeta 1-42 respectively. […]
quantity: IC50 (nM)

- C[C@@]1(c2cccc(NC(=O)c3ccc(Cl)cn3)c2)N=C(N)CO[C@H]1F (single isomer, unassigned) [Compound 85]: 851
- COc1cnc(C(=O)Nc2ccc(F)c([C@@]3(C4CC4)N=C(N)CO[C@H]3F)c2)cn1 [Compound 217]: 490
- Cc1cc(Br)cnc1C(=O)Nc1cccc([C@@]2(C3CC3)N=C(N)CO[C@H]2F)c1 [Compound 272]: 35.5

---

quantity: melting point (°C)

• CC1(c2cccc(NC(=O)c3ccncn3)c2)N=C(N)COC1(F)C(F)(F)F (single isomer, unassigned) [Compound 189] = 189.29
• COc1ccc(C(=O)Nc2ccc(F)c([C@@]3(C)N=C(N)CO[C@@]3(F)C(F)(F)F)c2)nc1 [Compound 305] = 123.8
• CC1(c2cc(-c3cncnc3)ccc2F)N=C(N)COC1F (single isomer, unassigned) [Compound 75] = 227.7
• C[C@@]1(c2cccc(NC(=O)c3ccc(Cl)cn3)c2)N=C(N)CO[C@H]1F (single isomer, unassigned) [Compound 85] = 160.8
• CCC1(c2cc(NC(=O)c3cnc(OC)cn3)ccc2F)N=C(N)COC1(F)C(F)(F)F (centres unmarked) [Compound 301] = 196.44

---

biological target: recombinant BACE1 protein (Homo sapiens, UniProt P56817); test: Biochemical FRET based assay; details: recombinant BACE1 1 μg/ml, 120 minutes at room temperature, pH 5.0; read-out: Biochemical FRET based assay pIC50 (converted)
Sequence (P56817 46-501): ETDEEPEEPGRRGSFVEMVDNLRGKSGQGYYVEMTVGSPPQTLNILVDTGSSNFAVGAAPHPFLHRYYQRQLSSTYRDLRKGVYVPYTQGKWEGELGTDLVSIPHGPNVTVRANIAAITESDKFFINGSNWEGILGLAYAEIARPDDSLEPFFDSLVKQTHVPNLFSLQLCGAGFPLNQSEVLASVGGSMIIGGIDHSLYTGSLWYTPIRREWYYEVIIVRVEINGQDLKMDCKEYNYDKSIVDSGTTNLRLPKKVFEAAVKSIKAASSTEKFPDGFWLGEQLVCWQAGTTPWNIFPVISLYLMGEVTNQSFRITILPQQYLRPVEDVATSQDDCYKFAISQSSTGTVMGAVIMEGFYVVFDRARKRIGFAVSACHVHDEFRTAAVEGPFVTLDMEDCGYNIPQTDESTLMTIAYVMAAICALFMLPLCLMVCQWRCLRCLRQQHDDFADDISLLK
Mark each entry TRUE if its IC50 sits below 200 nM, and FALSE for all others.

- N#Cc1cncc(-c2ccc(F)c([C@@]3(C4CC4)N=C(N)CO[C@@]3(F)C(F)(F)F)c2)c1 [Compound 271]: FALSE
- C[C@]1(c2cc(-c3cncnc3)c(F)cc2F)N=C(N)CO[C@]1(F)C(F)(F)F [Compound 210]: FALSE
- C[C@]1(c2ccnc(-c3cc(Cl)cc(Cl)c3)c2)N=C(N)CO[C@@H]1F (single isomer, unassigned) [Compound 277]: FALSE
- CC1(c2cccc(NC(=O)c3ccc(Cl)cn3)c2)COC(F)(C(F)(F)F)C(N)=N1 (single isomer, unassigned) [Compound 15]: FALSE
- N#Cc1cncc(-c2cccc([C@@]3(C4CC4)N=C(N)CO[C@H]3C(F)(F)F)c2)c1 [Compound 253]: TRUE
- CC1(c2cc(-c3cncc(C#N)c3)ccc2F)N=C(N)COC1C(F)(F)F (single isomer, unassigned) [Compound 266]: FALSE
- CC1(c2cc(-c3cncc(C#N)c3)ccc2F)N=C(N)COC1C(F)(F)F (single isomer, unassigned) [Compound 265]: FALSE
- COc1cncc(-c2ccc(F)c(C3(C)N=C(N)COC3C(F)(F)F)c2)c1 (stereo not drawn) [Compound 105]: FALSE
- CC1(c2cccc(NC(=O)c3ncc(Cl)cc3F)c2)N=C(N)COC1(F)C(F)(F)F (single isomer, unassigned) [Compound 172]: FALSE
- COc1cnc(C(=O)Nc2cccc(C3(C)N=C(N)COC3(F)C(F)(F)F)c2)cn1 (single isomer, unassigned) [Compound 176]: FALSE
- COc1cnc(C(=O)Nc2ccc(F)c([C@]3(C4CC4)COCC(N)=N3)c2)cn1 [Compound 299]: TRUE
- COc1cncc(-c2cccc(C3(C)N=C(N)COC3C(F)(F)F)c2)c1 (single isomer, unassigned) [Compound 101]: TRUE
- COc1cnc(C(=O)Nc2ccc(F)c([C@@]3(C)N=C(N)CO[C@H]3C(F)(F)F)c2)cn1 [Compound 166]: TRUE
- CC1(c2cc(-c3cncnc3)ccc2F)N=C(N)COC1C(F)(F)F (single isomer, unassigned) [Compound 267]: FALSE
- N#Cc1cnc(C(=O)Nc2ccc(F)c([C@@]3(C4CC4)N=C(N)CO[C@@H]3F)c2)c(Cl)c1 [Compound 218]: TRUE
- N#Cc1ccc(C(=O)Nc2cccc([C@@]3(C4CC4)N=C(N)CO[C@@H]3F)c2)nc1 [Compound 251]: TRUE
- CC1(c2cccc(-c3cncnc3)c2)N=C(N)COC1(F)C(F)(F)F (single isomer, unassigned) [Compound 116]: FALSE
- CC1(c2cccc(NC(=O)c3ccncn3)c2)N=C(N)COC1(F)C(F)(F)F (single isomer, unassigned) [Compound 188]: FALSE
